For each of the compounds below, state its viability at 48 h, 10 µM.
assay.comment: in vitro
Design: species or system HB2, HEK293
condition.context: human, ccd841 cells
Please state the number and follow it with the unit.

(Q) Reported viability at 48 h, 10 µM, compound CC1CCc2ccccc2N1C(=O)CCl (stereo not shown) : ____
(A) 39.6%

(Q) Then what about the compound COc1ccc2c(c1)CCCN2C(=O)CCl ?
(A) 40.2%

(Q) Then what about the compound COc1ccc(C(=O)NC(=O)CCl)cc1 ?
(A) 103%

(Q) Then what about the compound O=C(CCl)N1CCc2[nH]c3ccccc3c2C1 ?
(A) 61.8%

(Q) Then what about the compound C=CC(=O)N1CCC(C(=O)c2cccs2)CC1 ?
(A) 97.9%

(Q) Then what about the compound Cc1nn(-c2ccccc2)c(C)c1NC(=O)CCl ?
(A) 68.3%

(Q) Then what about the compound Cc1cc([N+](=O)[O-])ccc1NC(=O)CCl ?
(A) 60.9%

(Q) Then what about the compound N#Cc1ccsc1NC(=O)CCl ?
(A) 74.6%

(Q) Then what about the compound O=C(CCl)NC1CCC2(CC1)OCCO2 ?
(A) 96.8%

(Q) Then what about the compound O=C(CCl)Nc1ccc(N2CCCCC2)cc1 ?
(A) 55.2%

(Q) Then what about the compound C=CC(=O)N1CCc2ccccc21 ?
(A) 105%

(Q) Then what about the compound C=CC(=O)NC1(C(N)=O)CCCOC1 (stereo not shown) ?
(A) 107%

(Q) Then what about the compound O=C(CCl)N1CCN(S(=O)(=O)c2ccc(F)cc2)CC1 ?
(A) 77%

(Q) Then what about the compound Cc1ccc([N+](=O)[O-])cc1NC(=O)CCl ?
(A) 2%

(Q) Then what about the compound O=C(CCl)Nc1cc2c(cc1Cl)OCO2 ?
(A) 70.7%

(Q) Then what about the compound CCOC(=O)C1CCCN(C(=O)CCl)C1 (stereo not shown) ?
(A) 98.8%

====

assay.comment: in vitro
Parameters: species or system HB2, HEK293
condition.context: human, ccd841 cells
endpoint.label: viability at 48 h, 10 µM
Please state the number and follow it with the unit.

(Q) Reported viability at 48 h, 10 µM, compound C=CC(=O)NC1CCN(C(C)=O)Cc2cc(F)ccc21 (centres unmarked) : ____
(A) 114%

(Q) Then what about the compound O=C(CCl)Nc1cccnc1Cl ?
(A) 88.8%

(Q) Then what about the compound CCN(C(=O)CCl)c1ccccc1C ?
(A) 85.7%

(Q) Then what about the compound Cc1ccccc1CN(C)C(=O)CCl ?
(A) 57%

(Q) Then what about the compound C=CC(=O)N1CCCN(c2ccc(-c3ccccc3)nn2)CC1 ?
(A) 103%

(Q) Then what about the compound N#Cc1cccc(C(=O)NNC(=O)CCl)c1 ?
(A) 82.6%

(Q) Then what about the compound COc1ccc(NC(=O)CCl)cn1 ?
(A) 63.7%

(Q) Then what about the compound C=CC(=O)NCc1ccc(F)cc1 ?
(A) 111%

(Q) Then what about the compound C=CC(=O)N1CCCC2(CNC(=O)O2)C1 (centres unmarked) ?
(A) 113%

(Q) Then what about the compound C=CC(=O)NC1CCN(C(=O)NCC)C1 (centres unmarked) ?
(A) 93.3%

(Q) Then what about the compound O=C(CCl)NCC(=O)N1CCCC1 ?
(A) 101%

(Q) Then what about the compound C=CC(=O)N1CC(Oc2ccc(C#N)cc2)C1 ?
(A) 90.8%

(Q) Then what about the compound O=C(CCl)N1N=C(c2cccs2)CC1c1ccco1 (centres unmarked) ?
(A) 7.9%

(Q) Then what about the compound O=C(CCl)NCc1cccc(F)c1 ?
(A) 69.7%

(Q) Then what about the compound Cc1csc(N(C(=O)CCl)c2ccccc2)n1 ?
(A) 36.8%

(Q) Then what about the compound O=C(CCl)Nc1cccc(F)c1 ?
(A) 45.7%

(Q) Then what about the compound C=CC(=O)NCC1CCN(C)c2ccccc21 (centres unmarked) ?
(A) 98.5%

(Q) Then what about the compound CC(C)(C)c1ccc(C(=O)NNC(=O)CCl)cc1 ?
(A) 44.3%

(Q) Then what about the compound COC(=O)NC(=O)CCl ?
(A) 123%

(Q) Then what about the compound CN(Cc1cc(Br)cs1)C(=O)CCl ?
(A) 45.5%

(Q) Then what about the compound O=C(CCl)Nc1nc2c(F)c(F)c(F)cc2s1 ?
(A) 57.9%

(Q) Then what about the compound O=C(CCl)N=c1sccn1Cc1ccccc1Cl ?
(A) 3.8%

(Q) Then what about the compound CN(C)S(=O)(=O)c1ccc2c(c1)CCCN2C(=O)CCl ?
(A) 53.5%

(Q) Then what about the compound C=CC(=O)NCC1=CCCCC1 ?
(A) 99.1%

(Q) Then what about the compound CC(c1ccccc1)N(C)C(=O)CCl (centres unmarked) ?
(A) 60.7%

(Q) Then what about the compound Cc1noc(C)c1CNC(=O)CCl ?
(A) 94.9%

(Q) Then what about the compound CCN(C(=O)CCl)c1nc2ccccc2s1 ?
(A) 16.1%

(Q) Then what about the compound CCC1CN(C(=O)CCl)CCO1 (centres unmarked) ?
(A) 79.3%

(Q) Then what about the compound O=C(CCl)Nc1ccc2c(c1)OCCCO2 ?
(A) 51.7%

(Q) Then what about the compound C=CC(=O)N1CCC(N)CC1.Cl ?
(A) 98.2%

(Q) Then what about the compound CC(NC(=O)CCl)c1cccs1 (centres unmarked) ?
(A) 78.5%

(Q) Then what about the compound Cl.O=C(CCl)N1CCN(c2ccccn2)CC1 ?
(A) 94.7%

(Q) Then what about the compound O=C(CCl)NCC1Cc2ccccc2O1 (centres unmarked) ?
(A) 88.9%

(Q) Then what about the compound O=C(CCl)NC(=O)Nc1ccc2c(c1)OCO2 ?
(A) 98.4%

(Q) Then what about the compound COc1ccc(N2CCN(C(=O)CCl)CC2)cc1 ?
(A) 84.2%

(Q) Then what about the compound C=CC(=O)N1CCN(C(=O)OC(C)(C)C)CC1 ?
(A) 104%

(Q) Then what about the compound Cn1nc(-c2ccc(Cl)cc2)cc1NC(=O)CCl ?
(A) 4.5%

(Q) Then what about the compound Cc1ccc(NC(=O)CCl)c(Br)c1 ?
(A) 87.6%

(Q) Then what about the compound COc1ccc(NC(=O)CCl)cc1 ?
(A) 42.7%

(Q) Then what about the compound C=CC(=O)N1CCC(C(=O)N2CCN(C(C)=O)CC2)CC1 ?
(A) 111%

(Q) Then what about the compound CC(C)(C)c1cc(NC(=O)CCl)n(-c2ccccc2)n1 ?
(A) 65.2%

(Q) Then what about the compound Cc1ccc(NC(=O)CCl)c(F)c1 ?
(A) 58.4%

(Q) Then what about the compound O=C(CCl)Nc1ccc(Br)cc1 ?
(A) 52.9%

(Q) Then what about the compound C=CC(=O)NC1CCN(c2ccc(C(F)(F)F)cn2)CC1 ?
(A) 94.7%

====

assay.comment: in vitro
Parameters: species or system HB2, HEK293
condition.context: human, ccd841 cells
For each of the compounds below, state its viability at 48 h, 10 µM.
Provide only the numeric value, understood in %.

(Q) Reported viability at 48 h, 10 µM, compound CN(Cc1c(F)cccc1Cl)C(=O)CCl : ____
(A) 42.2

(Q) Then what about the compound O=C(CCl)N1CCC(c2nc3ccccc3o2)CC1 ?
(A) 70

(Q) Then what about the compound O=C(CCl)Nc1cc(F)cc(F)c1 ?
(A) 58.3

====

For each of the molecules below, state its OTUB2.
system: OTUB2 (OTUB2A) (Homo sapiens)
Construct: full length residues 1-234, E. coli BL21(DE3)-R3, His tag removed by TEV, construct 27312 Da
Sequence (Q96DC9 whole entry, the tested form may be a part): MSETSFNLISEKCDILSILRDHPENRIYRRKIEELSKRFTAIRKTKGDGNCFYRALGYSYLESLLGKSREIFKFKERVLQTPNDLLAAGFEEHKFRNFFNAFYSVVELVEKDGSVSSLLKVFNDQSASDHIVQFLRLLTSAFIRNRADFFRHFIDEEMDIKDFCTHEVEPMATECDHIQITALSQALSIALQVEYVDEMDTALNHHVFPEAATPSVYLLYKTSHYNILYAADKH
Design: Intact protein LC/MS covalent labelling, fragments in pools of five, 200 uM each, 4 °C
condition.context: 24 h, 4 °C, pool of five; 200 µM; covalent

(Q) Reported OTUB2, molecule O=C(CCl)N1CCc2sccc2C1c1ccccc1 (centres unmarked) [PCM-0103024] : ____
(A) 0

(Q) Then what about the molecule O=C(CCl)NC(=O)c1ccc(Cl)cc1 [PCM-0102711] ?
(A) 0

(Q) Then what about the molecule C=CC(=O)NC1(CO)Cc2ccccc2C1 [PCM-0102446] ?
(A) 0

(Q) Then what about the molecule O=C(CCl)Nc1ccc(F)c(Cl)c1 [PCM-0102217] ?
(A) 0.14

(Q) Then what about the molecule C=CC(=O)N1CCCN(Cc2cn3cc(Cl)ccc3n2)CC1 [PCM-0102565] ?
(A) 0

(Q) Then what about the molecule CC1CCCC(NC(=O)CCl)C1C (centres unmarked) [PCM-0102663] ?
(A) 0.29

(Q) Then what about the molecule O=C(CCl)NC1CCN(C(=O)C2CCCCC2)CC1 [PCM-0102931] ?
(A) 0.09

(Q) Then what about the molecule C=CC(=O)N1CCCN(c2ccc(-c3ccccc3)nn2)CC1 [PCM-0102964] ?
(A) 0

(Q) Then what about the molecule O=C(CCl)Nc1ccc2c(c1)OC1(CCCCC1)O2 [PCM-0102104] ?
(A) 0.47

(Q) Then what about the molecule C=CC(=O)N1CCC(n2ccc(C(F)(F)F)n2)CC1 [PCM-0102435] ?
(A) 0

(Q) Then what about the molecule O=C(CCl)NC(=O)NC1CCS(=O)(=O)C1 (centres unmarked) [PCM-0102100] ?
(A) 0.09

(Q) Then what about the molecule CC1CC(=O)Nc2ccccc2N1C(=O)CCl (centres unmarked) [PCM-0102697] ?
(A) 0

(Q) Then what about the molecule O=C(CCl)N(c1ccccc1)C1CCS(=O)(=O)C1 (centres unmarked) [PCM-0102755] ?
(A) 0

(Q) Then what about the molecule CCC1c2ccsc2CCN1C(=O)CCl (centres unmarked) [PCM-0103051] ?
(A) 0

(Q) Then what about the molecule CCc1cc(C(=O)NNC(=O)CCl)sc1C [PCM-0102300] ?
(A) 0.83

(Q) Then what about the molecule O=C(CCl)N1CCN(S(=O)(=O)c2ccccc2Cl)CC1 [PCM-0102837] ?
(A) 0

(Q) Then what about the molecule C=CC(=O)Nc1ccccc1C(=O)OC [PCM-0102967] ?
(A) 0

(Q) Then what about the molecule O=C(CCl)NCC1CCCc2ccccc21 (centres unmarked) [PCM-0102794] ?
(A) 0.34

(Q) Then what about the molecule C=CC(=O)N1CCCc2[nH]c3ccc(F)cc3c2C1 [PCM-0102485] ?
(A) 0

(Q) Then what about the molecule O=C(Nc1ccccc1)NN(C(=O)CCl)c1ccccc1 [PCM-0102957] ?
(A) 0

Source listed as paper PMC6556873.
